assayed target: HDM2 (Homo sapiens, UniProt Q00987)
Construct: Recombinant HDM2 (1.5 μg per well) in TBS-BSA buffer
Sequence (Q00987 whole entry): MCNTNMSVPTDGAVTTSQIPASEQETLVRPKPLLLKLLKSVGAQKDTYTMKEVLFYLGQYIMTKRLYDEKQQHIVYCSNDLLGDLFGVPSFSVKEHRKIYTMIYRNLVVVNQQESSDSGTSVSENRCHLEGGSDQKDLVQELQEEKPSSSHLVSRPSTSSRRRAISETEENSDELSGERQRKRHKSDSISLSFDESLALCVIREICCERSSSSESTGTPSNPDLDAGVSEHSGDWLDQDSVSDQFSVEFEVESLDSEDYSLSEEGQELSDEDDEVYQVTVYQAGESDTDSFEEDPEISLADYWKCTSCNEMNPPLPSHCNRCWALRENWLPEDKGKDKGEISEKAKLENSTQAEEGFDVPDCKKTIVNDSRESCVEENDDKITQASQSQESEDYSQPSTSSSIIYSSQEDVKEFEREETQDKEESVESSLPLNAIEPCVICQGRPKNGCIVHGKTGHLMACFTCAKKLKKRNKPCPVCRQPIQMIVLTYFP
run description: Fluorescence polarisation competitive HDM2 binding assay
condition parameters: fluorescence polarisation format; Table 1; read-out: IC50 In vitro competitive HDM2 binding assay
Please go through the items and note down their pIC50.
// scale note: pIC50 = -log10(conc_M); give the bare number

Prompt line: For the molecule O=S(=O)(NCc1ccc(C(F)(F)F)cc1)c1cc(Cl)c(O)c(Cl)c1 , report pIC50.
Response line: 3.62

Prompt line: For the molecule COc1ccc(NS(=O)(=O)c2cc([N+](=O)[O-])c(Cl)s2)c(C)c1 , report pIC50.
Response line: 3.56

Prompt line: For the molecule O=[N+]([O-])c1cc(S(=O)(=O)Nc2ccc(C(F)(F)F)cc2)sc1Cl , report pIC50.
Response line: 4.69

Prompt line: For the molecule O=[N+]([O-])c1csc(S(=O)(=O)NCCc2c[nH]c3ccccc23)c1 , report pIC50.
Response line: 3.61

Prompt line: For the molecule Cc1c(S(=O)(=O)Nc2cc(C(F)(F)F)cc(C(F)(F)F)c2)sc2ccc(Cl)cc12 , report pIC50.
Response line: 3.97

Prompt line: For the molecule Cn1ncc(-c2ccc(S(=O)(=O)Nc3cc(C(F)(F)F)cc(C(F)(F)F)c3)s2)c1C(F)(F)F , report pIC50.
Response line: 3.88

Prompt line: For the molecule CN(c1ccc(F)cc1)S(=O)(=O)c1cc([N+](=O)[O-])c(Cl)s1 , report pIC50.
Response line: 4.81

Prompt line: For the molecule O=[N+]([O-])c1cc(S(=O)(=O)NCCc2c[nH]c3cc(Cl)ccc23)sc1Cl , report pIC50.
Response line: 4.54

----------
Test system: H1299
run description: Combination treatment with cisplatin or etoposide, MTT, H1299
Type: cell-based, human
condition parameters: Homo sapiens, NCI-H1299, MTT, 72 hours, Table 6, read-out: IC50, agent alone
property measured: pIC50
// scale note: pIC50 = -log10(conc_M); give the bare number

Prompt line: For the compound COc1cc([C@@H]2c3cc4c(cc3[C@@H](O[C@@H]3O[C@@H]5CO[C@@H](C)O[C@H]5[C@H](O)[C@H]3O)[C@H]3COC(=O)[C@H]23)OCO4)cc(OC)c1O [Etoposide, reference compound] , report pIC50.
Response line: 5.89

----------
Please go through the items and note down their IC50.
System: MCF7
run description: 72-h MTT cytotoxicity assay, MCF7
Type: cell-based
condition parameters: Homo sapiens, MCF7, Breast adenocarcinoma, read-out: Anti-proliferative activity, 72-h MTT IC50
Respond numerically; units are nM and should not be typed.

Prompt line: For the compound O=[N+]([O-])c1cc(S(=O)(=O)Nc2ccc(F)cc2)sc1Cl [Compound 3] , report IC50.
Response line: 1900

Prompt line: For the compound CN(c1ccc(F)cc1)S(=O)(=O)c1cc([N+](=O)[O-])c(Cl)s1 [Compound 7] , report IC50.
Response line: 11200

Prompt line: For the compound O=[N+]([O-])c1cc(S(=O)(=O)Nc2ccc(C(F)(F)F)cc2)sc1Cl [Compound 6] , report IC50.
Response line: 3300

Prompt line: For the compound O=[N+]([O-])c1cc(S(=O)(=O)Nc2ccc(Cl)cc2)sc1Cl [Compound 2] , report IC50.
Response line: 2700
